test: Real-time oxygen uptake in perfused microwell bioreactor; format: cell-based, human; details: human
Metric: CC50 at 24 h (µM)
Dear colleague, please return just the value in µM, with no unit written.

QUERY: Would you kindly share the measured CC50 at 24 h for Cc1c(C)c2c(c(C)c1O)CCC(C)(COc1ccc(CC3SC(=O)NC3=O)cc1)O2 (stereo not shown) [troglitazone] ?
RESULT: 285

====

test: Real-time oxygen uptake in perfused microwell bioreactor; format: cell-based, human; details: human; after 12 hours; read-out: TC50 (dose dependence of oxygen uptake)
Metric: CC50 at 12 h
A bare number is not enough; add the unit after it.

QUERY: I would be grateful if you could share the reported CC50 at 12 h for C=C(C)[C@H]1Cc2c(ccc3c2O[C@@H]2COc4cc(OC)c(OC)cc4[C@@H]2C3=O)O1 .
RESULT: 12.5 µM
